Target: KRAS (G12C)::SOS1 protein-protein interaction (Homo sapiens (Human), UniProt P01116, C118S/C51S/C80L/G12C)
Sequence (P01116 other isoform, or with tags, fused parts or gaps G12C/C51S/C80L/C118S): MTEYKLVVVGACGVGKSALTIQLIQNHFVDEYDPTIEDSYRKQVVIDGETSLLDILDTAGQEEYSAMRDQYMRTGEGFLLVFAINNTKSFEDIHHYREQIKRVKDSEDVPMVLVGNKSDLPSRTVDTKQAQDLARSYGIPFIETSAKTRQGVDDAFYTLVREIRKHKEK
Test: KRAS::SOS1 AlphaScreen binding assay (KRAS G12C)
Details: GDP
Experimental: This assay can be used to examine the potency with which compounds according to the invention binding to (mutated) KRAS inhibit the protein-protein interaction between SOS1 and (mutated) KRAS e.g. KRAS G12C, KRAS G12D. […] Plates are kept at room temperature in a darkened incubator. After an additional 60 minutes incubation time the signal is measured in a PerkinElmer Envision HTS Multilabel Reader using the AlphaScreen specs from PerkinElmer. […]
Test readout: IC50 (nM)

Compound	Test readout	Quantitative result
C[C@H](Oc1nc(-c2noc3c2CCC[C@@]32CCCc3sc(N)c(C#N)c32)nc2c1CNC[C@]21CCOC1)[C@@H]1CCCN1C [II-15]	IC50	2
C[C@H](Oc1nc(-c2onc3c2CCC[C@@]32CCCc3sc(N)c(C#N)c32)nc2c1n(C)c(=O)n2[C@@H]1CCCOC1)[C@@H]1CCCN1C [I-12]	IC50	1
C[C@H](Oc1nc(-c2onc3c2CCC[C@@]32CCCc3sc(N)c(C#N)c32)nc2c1[nH]c(=O)n2[C@@H]1CCOC1)[C@@H]1CCCN1C [I-8]	IC50	1
C[C@H](Oc1nc(-c2onc3c2CCC[C@@]32CCCc3sc(N)c(C#N)c32)nc2c1n(C)c(=O)n2C1CCOCC1)[C@@H]1CCCN1C [I-10]	IC50	2
Cc1cc2c(O[C@@H](C)[C@@H]3CCCN3C)nc(-c3onc4c3CCC[C@@]43CCCc4sc(N)c(C#N)c43)nc2n1[C@@H]1CCOC1 [I-40]	IC50	2
C[C@H](Oc1nc(-c2noc3c2CCC[C@@]32CCCc3sc(N)c(C#N)c32)nc2c1CCCO[C@]21CCOC1)[C@@H]1CCCN1C [II-10]	IC50	1

###

Assay: Metabolic (microsomal) stability assay, human liver microsomes (HLM)
Type: in vitro ADME
Conditions: 1 μM test compound, predicted clearance as percent of liver blood flow
Below is a list of entries, each paired with its recorded HLM QH value.

Smiles str	Value unit	Modifier	HLM QH
COCCn1c(=O)n(C)c2c(O[C@@H](C)[C@@H]3CCCN3C)nc(-c3onc4c3CCC[C@@]43CCCc4sc(N)c(C#N)c43)nc21	%	<	24
Cc1nc2c(O[C@@H](C)[C@@H]3CCCN3C)nc(-c3onc4c3CCC[C@@]43CCCc4sc(N)c(C#N)c43)nc2n1[C@@H]1CCOC1	%	=	57
C[C@H](Oc1nc(-c2onc3c2CCC[C@@]32CCCc3sc(N)c(C#N)c32)nc2c1n(C)c(=O)n2[C@@H]1CCOC1)[C@@H]1C[C@@H]2C[C@@H]2N1C	%	=	52
CCn1c(=O)n([C@@H]2CCCOC2)c2nc(-c3onc4c3CCC[C@@]43CCCc4sc(N)c(C#N)c43)nc(O[C@@H](C)C34CCCN3CCC4)c21	%	=	37
CCn1c(=O)n([C@@H]2CCCOC2)c2nc(-c3onc4c3CCC[C@@]43CCCc4sc(N)c(C#N)c43)nc(O[C@@H](C)[C@@H]3CCCN3C)c21	%	=	25
C[C@H](Oc1nc(-c2onc3c2CCC[C@@]32CCCc3sc(N)c(C#N)c32)nc2c1n(C)c(=O)n2[C@@H]1CCOC1)C12CCCN1CCC2	%	=	33
Cc1nn([C@@H]2CCOC2)c2nc(-c3onc4c3CCC[C@@]43CCCc4sc(N)c(C#N)c43)nc(O[C@@H](C)[C@@H]3CCCN3C)c12	%	=	36
CCn1c(=O)n([C@@H]2CCCOC2)c2nc(-c3onc4c3CCC[C@@]43CCCc4sc(N)c(C#N)c43)nc(OC[C@@]34CCCN3C[C@H](F)C4)c21	%	=	48
C[C@H](Oc1nc(-c2noc3c2CCC[C@@]32CCCc3sc(N)c(C#N)c32)nc2c1n(C)c(=O)n2[C@@H]1CCOC1)[C@@H]1CCCN1C	%	=	40
CC(C)n1c(=O)n([C@@H]2CCOC2)c2nc(-c3onc4c3CCC[C@@]43CCCc4sc(N)c(C#N)c43)nc(O[C@@H](C)[C@@H]3CCCN3C)c21	%	=	88
C[C@H](Oc1nc(-c2noc3c2CCC[C@@]32CCCc3sc(N)c(C#N)c32)nc2c1CCCO[C@]21CCOC1)[C@@H]1CCCN1C	%	=	47
C[C@H](Oc1nc(-c2noc3c2CCC[C@@]32CCCc3sc(N)c(C#N)c32)nc2c1CN(c1ncccn1)[C@]21CCOC1)[C@@H]1CCCN1C	%	<	24
CO[C@H]1CCN(C)[C@@H]1[C@H](C)Oc1nc(-c2onc3c2CCC[C@@]32CCCc3sc(N)c(C#N)c32)nc2c1n(C)c(=O)n2[C@H]1COC[C@@H](C)C1	%	=	74

###

efflux ratio at 90 min, 10 μM reference
Assay: Caco-2 assay (permeability and efflux ratio)
Format: in vitro ADME
Details: human, pH 7.4, Caco-2 efflux ratio PappBA/PappAB, read-out: Caco ER
Test readout: efflux ratio at 90 min, 10 μM

Smiles str	Test readout	Quantitative result
CO[C@@H]1C[C@@H]([C@H](C)Oc2nc(-c3noc4c3CCC[C@@]43CCCc4sc(N)c(C#N)c43)nc3c2CN(C2COC2)C[C@]32CCOC2)N(C)C1	efflux ratio at 90 min, 10 μM	15.3
C[C@H](Oc1nc(-c2onc3c2CCC[C@@]32CCCc3sc(N)c(C#N)c32)nc2c1n(C)c(=O)n2[C@@H]1CCOC1)C12CCCN1CCC2	efflux ratio at 90 min, 10 μM	18.6
C[C@H](Oc1nc(-c2onc3c2CCC[C@@]32CCCc3sc(N)c(C#N)c32)nc2c1n(C)c(=O)n2[C@@]12COC[C@@H]1C2)[C@@H]1CC[C@H](C)N1C	efflux ratio at 90 min, 10 μM	0.6
COCCn1c(=O)n([C@@H]2CCOC2)c2nc(-c3onc4c3CCC[C@@]43CCCc4sc(N)c(C#N)c43)nc(O[C@@H](C)[C@@H]3CCCN3C)c21	efflux ratio at 90 min, 10 μM	3.1
C[C@H](Oc1nc(-c2onc3c2CCC[C@@]32CCCc3sc(N)c(C#N)c32)nc2c1n(C)c(=O)n2[C@@H]1CCOC1)[C@@H]1CC[C@H](C)N1C	efflux ratio at 90 min, 10 μM	1
C[C@H](Oc1nc(-c2onc3c2CCC[C@@]32CCCc3sc(N)c(C#N)c32)nc2c1CN(C1COC1)C[C@]21CCOC1)[C@@H]1CC[C@H](C)N1C	efflux ratio at 90 min, 10 μM	2.3

###

Target: KRAS (G12C)::SOS1 protein-protein interaction (Homo sapiens (Human), UniProt P01116, C118S/C51S/C80L/G12C)
Assay: KRAS::SOS1 AlphaScreen binding assay (KRAS G12C)
Conditions: GDP
pIC50: −log10 of the molar value.
Test readout: pIC50

Molecule	Test readout	Quantitative result
C[C@H](Oc1nc(-c2noc3c2CCC[C@@]32CCCc3sc(N)c(C#N)c32)nc2c1CN(c1ncccn1)[C@@]21CCOC1)[C@@H]1CCCN1C	pIC50	8.52
C[C@H](Oc1nc(-c2onc3c2CCC[C@@]32CCCc3sc(N)c(C#N)c32)nc2c1n(C)c(=O)n2[C@H]1CCOC1)[C@@H]1CCCN1C	pIC50	8.70
C[C@H](Oc1nc(-c2onc3c2CCC[C@@]32CCCc3sc(N)c(C#N)c32)nc2c1n(C)c(=O)n2[C@@H]1CC2CCC1O2)[C@@H]1CCCN1C (stereo partly drawn)	pIC50	8.40
CO[C@@H]1C[C@@H]([C@H](C)Oc2nc(-c3noc4c3CCC[C@@]43CCCc4sc(N)c(C#N)c43)nc3c2COC[C@]32CCOC2)N(C)C1	pIC50	8.70
CCn1c(=O)n([C@@H]2CCCOC2)c2nc(-c3onc4c3CCC[C@@]43CCCc4sc(N)c(C#N)c43)nc(O[C@@H](C)C34CCCN3CCC4)c21	pIC50	8.70
CO[C@H]1CCN(C)[C@@H]1[C@H](C)Oc1nc(-c2noc3c2CCC[C@@]32CCCc3sc(N)c(C#N)c32)nc2c1n(C)c(=O)n2[C@@H]1CCOC1	pIC50	9.00

###

In this section, each of the compounds is paired with its reported MBI 3A4.
Molecular target: CYP3A4 (Homo sapiens (Human))
Sequence (P08684 whole entry): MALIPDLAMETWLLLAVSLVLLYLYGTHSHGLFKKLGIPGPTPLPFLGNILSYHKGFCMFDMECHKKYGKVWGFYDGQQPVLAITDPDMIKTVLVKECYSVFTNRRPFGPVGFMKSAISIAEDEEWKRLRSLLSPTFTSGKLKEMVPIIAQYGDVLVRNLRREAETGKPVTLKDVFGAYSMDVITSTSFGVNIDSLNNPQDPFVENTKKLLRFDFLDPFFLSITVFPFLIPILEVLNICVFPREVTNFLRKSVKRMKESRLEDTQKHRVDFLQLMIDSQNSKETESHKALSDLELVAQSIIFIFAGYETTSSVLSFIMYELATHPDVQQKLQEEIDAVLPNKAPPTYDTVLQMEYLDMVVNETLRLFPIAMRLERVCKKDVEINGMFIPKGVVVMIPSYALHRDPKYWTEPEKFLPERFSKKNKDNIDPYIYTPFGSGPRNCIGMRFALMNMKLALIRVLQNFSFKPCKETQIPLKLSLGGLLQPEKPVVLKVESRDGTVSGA
Assay: Mechanism based inhibition of CYP3A4 assay (MBI 3A4)
Assay type: in vitro ADME
Conditions: human liver microsomes, 25 uM compound; hydroxy-midazolam formation after 30 min preincubation relative to 0 min
Test readout: MBI 3A4 (%)

Smiles str	Test readout	Quantitative result
C[C@H](Oc1nc(-c2noc3c2CCC[C@@]32CCCc3sc(N)c(C#N)c32)nc2c1CC[C@]21CNCCO1)[C@@H]1C[C@@H](F)CN1C	MBI 3A4	95
C[C@H](Oc1nc(-c2onc3c2CCC[C@@]32CCCc3sc(N)c(C#N)c32)nc2c1COC[C@]21CCOC1)[C@@H]1CCCN1C	MBI 3A4	83
C[C@H](Oc1nc(-c2onc3c2CCC[C@@]32CCCc3sc(N)c(C#N)c32)nc2c1n(C)c(=O)n2[C@@H]1CCCOC1)[C@@H]1CCCN1C	MBI 3A4	75
